// values below are reported pIC50
# Tested on: NCI-H460
# method: Cytotoxicity against human H460 cells after 24 to 48 hrs by MTT assay
# Format: functional, cell-based
pIC50: −log10 of the molar value.
readout-kind: pIC50

COc1cc(/C=C/C(=O)/C=C/c2nc3cc(Cl)ccc3n2C)ccc1O :: 5.05
COc1ccc2c(c1)nc(/C=C/C(=O)/C=C/c1ccc(O)c(OC)c1)n2C :: 4.90
COc1cc(/C=C/C(=O)/C=C/c2nc3cc(O)ccc3n2C)ccc1O :: 5.12
CC(=O)O[C@H]1C(=O)[C@@]2(C)[C@H]([C@H](OC(=O)c3ccccc3)[C@]3(O)C[C@H](OC(=O)[C@H](O)[C@@H](NC(=O)c4ccccc4)c4ccccc4)C(C)=C1C3(C)C)[C@]1(OC(C)=O)CO[C@@H]1C[C@@H]2O :: 8.10
COc1ccc(/C=C/C(=O)/C=C/c2nc3cc(C)ccc3n2C)cc1O :: 5.11
COc1cc(/C=C/C(=O)CC(=O)/C=C/c2ccc(O)c(OC)c2)ccc1O :: 4.29
COc1ccc(/C=C/C(=O)/C=C/c2nc3cc(O)ccc3n2C)cc1O :: 5.14
COc1ccc(/C=C/C(=O)/C=C/c2nc3c(C)c(C)ccc3n2C)cc1O :: 5.14
